Tested on: Wolbachia pipientis
Assay explanation: Anti-Wolbachia Cell-Based Screen
Format: functional
Set-up: scale not given: in the data most compounds retested in dose-response had high values
Study conditions: 5 µM
Screen size: about 48,000 compounds; about 13,000 (27%) showed an effect of 50% or more. The list shows a part of the results.
I would appreciate it if you labelled entries y when Percent Effect is 5% or higher, otherwise n.

{"Compound": "CN(C)C(=O)[C@@H]1CCO[C@@H]2CCN(c3ncccn3)C[C@@H]21.O=C(O)C(F)(F)F", "Target or test system": "Wolbachia pipientis", "Class label": "n"}

Decide: Percent Effect of COC(=O)c1cccc(C(=O)N2CCN(c3ccccc3F)CC2)n1 >= 5%?
y

Decide: Percent Effect of Cc1ccc(C(=O)N2C[C@@H]3CN(c4ncccn4)C[C@@H]3C2)cc1 >= 5%?
n

Decide: Percent Effect of Cc1cnc(-c2nc(C3CCN(Cc4ccccc4Cl)CC3)no2)cn1 >= 5%?
y

Decide: Percent Effect of CCN(C(=O)CN(CC(N)=O)C(C)C)C1=CCCC1 >= 5%?
n

Decide: Percent Effect of Cc1cc(C(C)NC(=O)c2cnc3onc(C)c3c2)c(C)o1 (configuration not stated) >= 5%?
y

Data provenance: ChEMBL document CHEMBL3988442
